# protocol: Solubility of Compound 7 in various media
# Type: physicochemical
# studyConditions: pH 9.0 buffer, pH 9, aqueous buffer

# molecule, unitsSymbol, solubility
data = [
    ("N#C/C(=C\\c1ccc2cc(N3CCCCC3)ccc2c1)C(=O)NCCOCCOCCO [Compound 7]", "µg/mL", 4.8),
]

* * *

# protocol: Solubility of Compound 7 in various media
# Assay type: physicochemical
# studyConditions: pH 4.0 buffer, pH 4, aqueous buffer

# compound, solubility [µg/mL]
data = [
    ("N#C/C(=C\\c1ccc2cc(N3CCCCC3)ccc2c1)C(=O)NCCOCCOCCO", 70),
]

* * *

# protocol: Rabbit pharmacokinetics of Compound 9, Study 1 (retina, brain, blood)
# Format: in vivo
# studyConditions: retina, other: injection (kind of injection not stated), Study 1, 30 mg Compound 9 injected, 30 min, read-out: Avg Conc., retina

# compound, concentration at 30 min (ng/g)
rows = [
    ("N#C/C(=C\\c1ccc2cc(N3CCCCC3)ccc2c1)C(=O)NCCOCCOCCO [Compound 7]", 2.13),
]

* * *

# protocol: Rabbit pharmacokinetics of Compound 9, Study 2 (retina, brain, blood/plasma)
# Assay type: in vivo
# studyConditions: retina, other: injection (site not stated); rabbit, Study 2, 28 mg Compound 9 injected, 5 min; read-out: Avg Conc., retina
valueKind: concentration at 5 min (ng/g)

# compound, valueKind, valueReported
data = [
    ("N#C/C(=C\\c1ccc2cc(N3CCCCC3)ccc2c1)C(=O)NCCOCCOCCO", "concentration at 5 min", 682),
]

* * *

# protocol: Rabbit pharmacokinetics of Compound 9, Study 1 (retina, brain, blood)
# Type: in vivo
# studyConditions: retina, other: injection (kind of injection not stated), Study 1, 30 mg Compound 9 injected, 15 min, read-out: Avg Conc., retina
valueKind: concentration at 15 min (ng/g)

# compound, valueReported
rows = [
    ("N#C/C(=C\\c1ccc2cc(N3CCCCC3)ccc2c1)C(=O)NCCOCCOCCO", 10.1),
]

* * *

# protocol: Solubility of Compound 7 in various media
# Assay type: physicochemical
# studyConditions: pH 7.0 buffer, pH 7, aqueous buffer

# molecule, solubility [µg/mL]
rows = [
    ("N#C/C(=C\\c1ccc2cc(N3CCCCC3)ccc2c1)C(=O)NCCOCCOCCO [Compound 7]", 4.6),
]

* * *

# protocol: Rabbit pharmacokinetics of Compound 9, Study 1 (retina, brain, blood)
# Assay type: in vivo
# studyConditions: blood, other: injection (site not specified), Study 1, 30 mg Compound 9 injected, 15 min, read-out: Avg Conc., blood
valueKind: concentration at 15 min (ng/mL)

# compound, valueReported
records = [
    ("N#C/C(=C\\c1ccc2cc(N3CCCCC3)ccc2c1)C(=O)NCCOCCOCCOP(=O)(O)O [Compound 9]", 5440),
    ("N#C/C(=C\\c1ccc2cc(N3CCCCC3)ccc2c1)C(=O)NCCOCCOCCO [Compound 7]", 217),
]

* * *

# protocol: Solubility of Compound 7 in various media
# Assay type: physicochemical
# studyConditions: castor oil, oil or lipid
valueKind: solubility

# compound, valueReported
rows = [
    ("N#C/C(=C\\c1ccc2cc(N3CCCCC3)ccc2c1)C(=O)NCCOCCOCCO [Compound 7]", "> 9000 µg/mL"),
]

* * *

# protocol: Rabbit pharmacokinetics of Compound 9, Study 2 (retina, brain, blood/plasma)
# Format: in vivo
# studyConditions: brain, other: injection (site or type of injection not stated); rabbit, Study 2, 28 mg Compound 9 injected, 5 min; read-out: Avg Conc., brain
Catalogue of concentration at 5 min values
valueKind: concentration at 5 min (ng/g)

# molecule, valueKind, valueReported
data = [
    ("N#C/C(=C\\c1ccc2cc(N3CCCCC3)ccc2c1)C(=O)NCCOCCOCCO [Compound 7]", "concentration at 5 min", 316),
    ("N#C/C(=C\\c1ccc2cc(N3CCCCC3)ccc2c1)C(=O)NCCOCCOCCOP(=O)(O)O [Compound 9]", "concentration at 5 min", 7.2),
]
